These entries and their values trace back to paper PMC5490409.

Answer each item with its documented viability at 48 h, 2.5 µg/mL.
TEST_PROTOCOL: in vitro
ASSAY_CONTEXT: mouse
Report the figure in % without appending any unit label.

Input COc1cc(/C=N/Nc2ccnc3cc(Cl)ccc23)cc(OC)c1OC , output reported viability at 48 h, 2.5 µg/mL.
93

Note viability at 48 h, 2.5 µg/mL for the compound shown: COc1ccc(OC)c(/C=N/Nc2ccnc3cc(Cl)ccc23)c1
40

Please report viability at 48 h, 2.5 µg/mL for the following compound: Clc1ccc2c(N/N=C/c3c(Cl)cccc3Cl)ccnc2c1
100

Find the measured viability at 48 h, 2.5 µg/mL of Oc1ccc(O)c(/C=N/Nc2ccnc3cc(Cl)ccc23)c1 and report it.
100

State, in one line, measured viability at 48 h, 2.5 µg/mL of COc1cccc(/C=N/Nc2ccnc3cc(Cl)ccc23)c1OC
98

Assign viability at 48 h, 2.5 µg/mL to the following record: COc1ccc(/C=N/Nc2ccnc3cc(Cl)ccc23)cc1OC
65

Report viability at 48 h, 2.5 µg/mL, nothing else, for this compound: Oc1ccc(C=NNc2ccnc3cc(Cl)ccc23)cc1O
78

Please indicate viability at 48 h, 2.5 µg/mL recorded for Oc1cccc(/C=N/Nc2ccnc3cc(Cl)ccc23)c1O
83

State its viability at 48 h, 2.5 µg/mL for this compound: COc1ccc(C=NNc2ccnc3cc(Cl)ccc23)c(Cl)c1O
80

----------
TEST_PROTOCOL: in vitro
ASSAY_CONTEXT: mouse
Exercise: state measured viability at 48 h, 25 µg/mL for each of the compounds provided.

Tell me its viability at 48 h, 25 µg/mL given Oc1ccc(O)c(/C=N/Nc2ccnc3cc(Cl)ccc23)c1 [D04] as the entry.
100%

Give the reported value of viability at 48 h, 25 µg/mL for this record: COc1ccc(C=NNc2ccnc3cc(Cl)ccc23)c(Cl)c1O [D09]
55%

Provide one value: measured viability at 48 h, 25 µg/mL of COc1cc(/C=N/Nc2ccnc3cc(Cl)ccc23)cc(OC)c1OC [D08]
90%

Input COc1cccc(/C=N/Nc2ccnc3cc(Cl)ccc23)c1OC [D05] , output reported viability at 48 h, 25 µg/mL.
97%

# return recorded viability at 48 h, 25 µg/mL for entry COc1ccc(OC)c(/C=N/Nc2ccnc3cc(Cl)ccc23)c1 [D07]
22%

Fill in reported viability at 48 h, 25 µg/mL for this entry: Oc1ccc(C=NNc2ccnc3cc(Cl)ccc23)cc1O [D03]
35%

State its viability at 48 h, 25 µg/mL: COc1ccc(/C=N/Nc2ccnc3cc(Cl)ccc23)cc1OC [D06]
8%

Give me measured viability at 48 h, 25 µg/mL, please, for this compound: Oc1cccc(/C=N/Nc2ccnc3cc(Cl)ccc23)c1O [D02]
40%

Please report the measured viability at 48 h, 25 µg/mL for Clc1ccc2c(N/N=C/c3c(Cl)cccc3Cl)ccnc2c1 [D01]
90%

----------
TEST_PROTOCOL: in vitro
ASSAY_CONTEXT: mouse
Hi! Could you tag entries with viability at 48 h, 100 µg/mL below 70% as Satisfied, and those at or above as Not satisfied? Much appreciated.

Here's an entry: Oc1cccc(/C=N/Nc2ccnc3cc(Cl)ccc23)c1O [D02] . Is its viability at 48 h, 100 µg/mL below 70%?
Not satisfied

Please determine if COc1ccc(/C=N/Nc2ccnc3cc(Cl)ccc23)cc1OC [D06] is below 70% in terms of viability at 48 h, 100 µg/mL.
Satisfied

Strictly below 70%: is that where viability at 48 h, 100 µg/mL of COc1cccc(/C=N/Nc2ccnc3cc(Cl)ccc23)c1OC [D05] sits?
Not satisfied

Problem: For the compound COc1ccc(C=NNc2ccnc3cc(Cl)ccc23)c(Cl)c1O [D09] , is viability at 48 h, 100 µg/mL under 70%?
Satisfied

# strict comparison: is reported viability at 48 h, 100 µg/mL < 70%? input = COc1ccc(OC)c(/C=N/Nc2ccnc3cc(Cl)ccc23)c1 [D07]
Satisfied

Lab note: viability at 48 h, 100 µg/mL threshold 70%. Does this compound come in strictly under it? Clc1ccc2c(N/N=C/c3c(Cl)cccc3Cl)ccnc2c1 [D01]
Not satisfied
